Form field: viability at 48 h, 2 ug/ml (one value per entry).
# Assay text: Cytotoxicity against mouse Nf1-/-;Trp53-/- KR158 cells assessed as cell viability at 2 ug/ml after 2 days by red luminescence assay relative to control
# Format: cell-based
# Condition info: read-out: Activity
Just the number please, in %, no unit attached.

// worked examples, viability at 48 h, 2 ug/ml included
CC(O)/C=C/C=C/C(O)CC/C=C/C(=O)NCC(C)(C)O (stereo not given)    67
CC(C)(O)CNC(=O)/C=C/CCC(=O)O [TIMURAMIDE D]    70
CC(=O)/C=C/C=C/C(O)CC/C=C/C(=O)NCC(C)(C)O (stereo not given)    75

Look up viability at 48 h, 2 ug/ml of C/C=C/C=C/C=C/CC/C=C/C(=O)NCC(C)(C)O and report it.
56

Look up viability at 48 h, 2 ug/ml of C[C@H]1C=C[C@@H](/C=C\CC/C=C/C(=O)NCC(C)(C)O)OO1 [TIMURAMIDE A] and report it.
97

Look up viability at 48 h, 2 ug/ml of C[C@H]1C=C[C@@H](/C=C/CC/C=C/C(=O)NCC(C)(C)O)OO1 [TIMURAMIDE B] and report it.
65

Look up viability at 48 h, 2 ug/ml of C/C=C/C=C/C=C\CC/C=C/C(=O)NCC(C)(C)O and report it.
106

Look up viability at 48 h, 2 ug/ml of C[C@@H](O)[C@H](O)/C=C/C=C\CC/C=C/C(=O)NCC(C)(C)O and report it.
66

Look up viability at 48 h, 2 ug/ml of CC(C)(O)CNC(=O)/C=C/CC/C=C\C=C\C(=O)O [TIMURAMIDE C] and report it.
66

Look up viability at 48 h, 2 ug/ml of C[C@H](O)[C@H](O)/C=C/C=C\CC/C=C/C(=O)NCC(C)(C)O and report it.
79
